Listing: GI50 of selected compounds
- Tested on: SNB-75
- assay: NCI tumour cell line growth inhibition, 48 h
Active and inactive are the calls of the source. No stated cut-off is given here; in the data, active = GI50 up to about 1.1 µM and inactive = higher.

Recorded GI50, per entry:
compound | target or system | GI50
Nn1c(S)nnc1C12CC3CC(CC(C3)C1)C2 | SNB-75 | > 100 µM (inactive)
CCc1cccc(C(C)C)c1NC(=O)C(=O)Nn1c(S)nc2ccccc2c1=O | SNB-75 | > 100 µM (inactive)
Cc1ccc(NC(=O)CSC(N)=O)cc1C | SNB-75 | > 100 µM (inactive)
CC[C@]1(Cc2ccc(OC)c(OC)c2)[C@@H]2C[C@@H](C3OCCO3)ON2O[C@H](OC2CCCC2(c2ccccc2)c2ccccc2)[C@@H]1OC(C)=O (stereo partly specified) | SNB-75 | 24 µM (inactive)
Cc1ccc(-c2nnc(SCC(=O)O)[nH]2)cc1 | SNB-75 | 78.5 µM (inactive)

Memo: OCC1OC2c3ccccc3COC2C1OCc1ccccc1 (stereo unspecified) , reported GI50: > 100 µM (inactive)

Entry Cc1cnc(Cl)nc1C(C#N)c1nc2ccccc2n1C (stereo unspecified) , GI50 reported as 10.1 µM (inactive)

----------
- Tested on: EKVX
- assay: NCI tumour cell line growth inhibition, 48 h
Active and inactive are the calls of the source. Rule as the data show it: active = GI50 up to about 1.1 µM and inactive = higher.
Hi there, use one of these labels in your reply, thanks! 1 for active, -1 for inactive

Here are 3 molecules together with their reported answers.
molecule | target or system | classification
COc1cc(C2c3cc4c(cc3[C@@H](Nc3ccccc3)C3COC[C@H]23)OCO4)cc(OC)c1O (stereo not given in full) | EKVX | -1
C=C(C)C1Cc2c(c3ccccc3n(C)c2=O)O1 (stereo not given) | EKVX | -1
COc1cc2c(c(N)c1OC)C(=O)/C(=C/c1cc(C)c(O)c(C)c1)C2 | EKVX | 1

Please indicate how the test categorized CCCCCCNC(=O)c1cc(CCc2cc(O)ccc2O)ccc1O .
-1

I would be grateful if you could indicate the recorded call for C/C(=N\Nc1nc2ccccc2n1C)c1cc2ccccc2cn1 .
1

I would be grateful if you could indicate the recorded call for O=C(/C=C/c1ccccc1)Oc1cccc2cccnc12 .
-1

Hi team, can someone confirm the assay call for CC(O[Si](c1ccccc1)(c1ccccc1)C(C)(C)C)[C@H](NC(=O)OC(C)(C)C)C(=O)O (stereo not given in full) ?
-1

Just curious, what result did N[C@H]1CCN(c2c(F)cc3c(=O)c(C(=O)O)cn4c3c2Oc2cc3c(ccc5ccccc53)cc2-4)C1 get here?
-1

Please share the test call associated with OCC(O)C(O)C(O)c1nn(-c2ccc(F)cc2)c2nc3cc(Cl)c(Cl)cc3nc12 (stereo not given) .
-1

Test call for this molecule, please: NC1CC(=O)c2c(Br)csc21 (stereo not given)
-1

----------
- Tested on: PC-3
- assay: NCI tumour cell line growth inhibition, 48 h
Calls of active or inactive are those of the source. Cut-off read from the data, not from the text of the source: active = GI50 up to about 1.1 µM and inactive = higher.
quantity kind: GI50

molecule | meas value
OC(c1cc(C23CC4CC(CC(C4)C2)C3)nc2c(Cl)cc(Cl)cc12)C1CCCCN1 (centres undefined) | 1.62 µM (inactive)
CCN(CC)CCOC(=O)CCN1CC2CCC(CC2)C1 | > 100 µM (inactive)
CC(C)=CC[C@]12CCN[C@H]1N(S(=O)(=O)c1ccccc1)c1ccccc12 | 13.5 µM (inactive)
CON(C)C(=O)C(C)N(Cc1ccccc1)Cc1ccccc1 (centres undefined) | 19.1 µM (inactive)
CCC1c2[nH]c3ccccc3c2C[C@H]2C(=O)NC(C)C(=O)N12 (some centres undefined) | > 100 µM (inactive)

The reported GI50 of the molecule CC1(C)OC(=O)N(c2ccccc2)C12C=Cc1cc([N+](=O)[O-])cc([N+](=O)[O-])c1O2 (centres undefined) was 91.2 µM (inactive)

According to the records, this molecule O=C1N[C@@H](c2c[nH]c3cc(Br)ccc23)C(=O)N[C@H]1c1c[nH]c2cc(Br)ccc12 displays GI50 of > 100 µM (inactive)

Reported GI50 of OCC1OC(Oc2cc(O)cc(/C=C\c3ccc(O)cc3)c2)C(O)C(O)C1O (centres undefined) : > 100 µM (inactive)

Data point: N#Cc1cccc(N2C(=O)C3C4C=CC(C3C2=O)C2C(=O)N(c3cccc(C#N)c3)C(=O)C42)c1 (centres undefined) ; GI50 = > 100 µM (inactive)

molecule CCOC(=O)c1csc(NC(=O)CN2CCN(c3ccccc3)CC2)n1 , GI50 observed: > 100 µM (inactive)

Input Cc1c(Cl)c(S(N)(=O)=O)cc2c1N=CNS2(=O)=O . Output GI50: > 100 µM (inactive)

The recorded GI50 for COc1ccc(OC)c(-c2nc3n(c2/C=C2/C(=O)Nc4ccccc42)CCS3)c1 is 86.5 µM (inactive)

Reported GI50 of Nn1c(S)nnc1C12CC3CC(CC(C3)C1)C2 : > 100 µM (inactive)

Entry under test: COc1ccc2nc3c([N+](=O)[O-])ccc(NCCCN(C)C)c3c(N)c2c1 . Its GI50 was 1.4 µM (inactive)

----------
- System: OVCAR-5
- assay: NCI tumour cell line growth inhibition, 48 h
The source made the active and inactive calls. Rule as the data show it: active = GI50 up to about 1.1 µM and inactive = higher.
// allowed return values: active, inactive

Examples from the recorded data:
compound | target or system | classification
CC(=O)OCC1OC(O/C=C(\CN=[N+]=[N-])C(C)=O)C(OC(C)=O)C(OC(C)=O)C1OC(C)=O (stereo not given) | OVCAR-5 | inactive
COC(=O)c1ccccc1/C=C1\Cc2ccc3ccccc3c2C1C (stereo not given) | OVCAR-5 | inactive

Would you mind telling me which call this test gave COc1cc2c(cc1OCCCN1C(=O)c3cccc4cccc(c34)C1=O)N=C[C@@H]1CCCN1C2=O ?
inactive

How did this test come out for CCOC(=O)C(Cc1ccc(N(CCCl)CCCl)cc1)NC(=O)CCCN1C(=O)CN=C(c2ccccc2)c2cc(Cl)ccc21 (stereo not given) ?
inactive

How was COc1cc([N+](=O)[O-])c(S(=O)(=O)[O-])cc1-[n+]1nc(C(=O)Nc2ccccc2)nn1-c1ccc([N+](=O)[O-])c(S(=O)(=O)O)c1 classified in this test?
inactive

Hi, do you know how Cc1ccc(C2(N3CCCC3)OC(C)(C)c3cccc4cccc2c34)cc1 (stereo not given) came out in this test?
inactive

I'd appreciate the recorded outcome for Cc1nc2cccc(F)c2c(=O)n1-c1nnc(C2CC2)s1 from this test.
inactive

----------
- Tested on: SNB-78
- assay: NCI tumour cell line growth inhibition, 48 h
Calls of active or inactive are those of the source. Cut-off read from the data, not from the text of the source: active = GI50 up to about 1.1 µM and inactive = higher.
Write down one outcome, taken from 1 = active, -1 = inactive

Tell me the recorded outcome of this test for CC(C)(C)c1cc(C(O)(C(F)(F)F)C(F)(F)F)c2c(c1)C(C(F)(F)F)(C(F)(F)F)OC(C)(C(C)(C)C)N2 (stereo not given) .
-1

Identify the outcome logged in this assay for the compound shown: COC(=O)/C(C#N)=C1\NC(=O)c2ccccc21
-1

What was the test verdict on C=C(C)C1Cc2c(c3ccccc3n(C)c2=O)O1 (stereo not given) ?
-1

For CSC[S+]([O-])C[C@H](CO)NC(=O)/C=C/c1c(C)[nH]c(=O)[nH]c1=O (stereo not given in full) , what call appears in the results of this test?
1

Can you look up the reported call for Brc1cc(C2OCCCO2)ccc1OCc1ccccc1 for me?
-1

----------
- Tested on: OVCAR-5
- assay: NCI tumour cell line growth inhibition, 48 h
Calls of active or inactive are those of the source. Rule as the data show it: active = GI50 up to about 1.1 µM and inactive = higher.
Answer with one of the outcomes active, inactive

Worked examples follow.
compound | target or system | classification
CCOC(=O)NC(=O)c1cn(CCN2CCN(C(=O)CNC(=O)CNC(=O)Cn3cc(C(=O)NC(=O)OCC)c(=O)[nH]c3=O)CC2)c(=O)[nH]c1=O | OVCAR-5 | inactive
O=C(O)c1cc(/N=N/c2ccc([As](=O)(O)O)cc2)ccc1O | OVCAR-5 | inactive
Fc1ccc(Oc2nc3ccccc3nc2-c2ccccc2)cc1 | OVCAR-5 | inactive
CC(O)c1cc2c(s1)C(=O)c1c(C(C)O)csc1C2=O (stereo not given) | OVCAR-5 | active
O=C1C=CC(=O)C(CNc2ccc(C(=O)OC34CC5CC(CC(C5)C3)C4)cc2)=C1 | OVCAR-5 | inactive

So what was the verdict on O=Cc1cn(CCCCCCCCCCCCn2cc(C=O)c3ccccc32)c2ccccc12 in this test?
inactive

State the result this test recorded for COC(=O)C1=NN2c3ccccc3C(=O)OCCC2(C)C1 (stereo not given) .
inactive

Please state the recorded outcome for this compound: CN1C(=O)C2(Cc3cn(C45CC67SSC(CO)(C(=O)N6C4Nc4ccccc45)N(C)C7=O)c4ccccc34)SSC1(CO)C(=O)N2C (stereo not given)
active

What did the test return for C1=N\c2ccc(cc2)/N=C\c2ccccc2OCc2cccc(n2)COc2ccccc2/1 ?
inactive

Entry CC(C)(C)/N=C\N(C=C(c1ccccc1)c1ccccc1)C1CCCCC1 : call = ?
inactive

Dear colleague, could you share the recorded outcome for Cn1cnc([N+](=O)[O-])c1Sc1nc2ccccc2[nH]1 when you have a moment?
inactive

Each compound tested received a call. Report the one for O=C(O)CCNS(=O)(=O)c1ccc(NC(=O)c2ccccc2)cc1 .
inactive

Entry c1ccc2c(CCNC3=NCCO3)cccc2c1 : call = ?
inactive

Please share the test call associated with CCCCCOc1ccc(/C=N\c2ccc(CCc3ccc(/N=C/c4ccc(OCCCCC)cc4)cc3)cc2)cc1 .
inactive

Where do the numbers come from? From ChEMBL document CHEMBL1201862.
